Origin of values: patent US9238666B2

# testSummary: Solubility at different pH conditions (equilibrium, 24 h, HPLC)
# Type: physicochemical
# recordedConditions: pH 1, room temperature
valueKind: Solubility at 24 h (µg/mL)
Field format: number, assumed µg/mL, no unit text.

Completed entries (count: 5):
compound: O=P(O)(O)NS(=O)(=O)c1cncc(-c2nc(NCc3ccccn3)c3c(-c4ccccc4)cccc3n2)c1 [Compound 8]
resultNumber: 600
--
compound: O=P(O)(O)NS(=O)(=O)c1cncc(-c2nc(NCc3ccccn3)c3c(-c4ccccc4)cccc3n2)c1 [Compound 3]
resultNumber: 750
--
compound: O=P(O)(O)NS(=O)(=O)c1cncc(-c2nc(NCc3ccccn3)c3c(-c4ccccc4)cccc3n2)c1 [Compound 2]
resultNumber: 250
--
compound: O=P(O)(O)NS(=O)(=O)c1cncc(-c2nc(NCc3ccccn3)c3c(-c4ccccc4)cccc3n2)c1 [Compound 5]
resultNumber: 1620
--
compound: O=P(O)(O)NS(=O)(=O)c1cncc(-c2nc(NCc3ccccn3)c3c(-c4ccccc4)cccc3n2)c1 [Compound 7]
resultNumber: 990

Next item in the queue.
Incoming: Output measured Solubility at 24 h for this item: O=P(O)(O)NS(=O)(=O)c1cncc(-c2nc(NCc3ccccn3)c3c(-c4ccccc4)cccc3n2)c1 [Compound 6]
Outgoing: 290

###

// Solubility at 24 h lookup, one value per entry
# testSummary: Solubility at different pH conditions (equilibrium, 24 h, HPLC)
# Type: physicochemical
# recordedConditions: pH 2, room temperature
Field format: number, assumed µg/mL, no unit text.

compound: O=P(O)(O)NS(=O)(=O)c1cncc(-c2nc(NCc3ccccn3)c3c(-c4ccccc4)cccc3n2)c1 [Compound 2]
Solubility at 24 h / µg/mL: 30
--
compound: O=P(O)(O)NS(=O)(=O)c1cncc(-c2nc(NCc3ccccn3)c3c(-c4ccccc4)cccc3n2)c1 [Compound 8]
Solubility at 24 h / µg/mL: 20
--
compound: O=P(O)(O)NS(=O)(=O)c1cncc(-c2nc(NCc3ccccn3)c3c(-c4ccccc4)cccc3n2)c1 [Compound 6]
Solubility at 24 h / µg/mL: 90
--
compound: O=P(O)(O)NS(=O)(=O)c1cncc(-c2nc(NCc3ccccn3)c3c(-c4ccccc4)cccc3n2)c1 [Compound 7]
Solubility at 24 h / µg/mL: 120
--
compound: O=P(O)(O)NS(=O)(=O)c1cncc(-c2nc(NCc3ccccn3)c3c(-c4ccccc4)cccc3n2)c1 [Compound 3]
Solubility at 24 h / µg/mL: 110

Next item in the queue.
Incoming: Output measured Solubility at 24 h for this item: O=P(O)(O)NS(=O)(=O)c1cncc(-c2nc(NCc3ccccn3)c3c(-c4ccccc4)cccc3n2)c1 [Compound 5]
Outgoing: 80

###

// Solubility at 24 h lookup, one value per entry
# testSummary: Solubility at different pH conditions (equilibrium, 24 h, HPLC)
# Format: physicochemical
# recordedConditions: buffer, pH 5, aqueous buffer, thermodynamic from solid, pH 5, room temperature; read-out: Solubility at 24 h

molecule: O=P(O)(O)N(P(=O)(O)O)S(=O)(=O)c1cncc(-c2nc(NCc3ccccn3)c3c(-c4ccccc4)cccc3n2)c1 [Compound 10]
Solubility at 24 h: > 5120 µg/mL

Next item in the queue.
Incoming: Output measured Solubility at 24 h for this item: NS(=O)(=O)c1cncc(-c2nc(NCc3ccccn3)c3c(-c4ccccc4)cccc3n2)c1 [Compound 1, reference compound]
Outgoing: < 1 µg/mL

###

# testSummary: Solubility at different pH conditions (equilibrium, 24 h, HPLC)
# Assay type: physicochemical
# recordedConditions: buffer, pH 3, aqueous buffer, thermodynamic from solid, pH 3, room temperature; read-out: Solubility at 24 h
valueKind: Solubility at 24 h

compound: O=P(O)(O)N(P(=O)(O)O)S(=O)(=O)c1cncc(-c2nc(NCc3ccccn3)c3c(-c4ccccc4)cccc3n2)c1
result: > 2110 µg/mL

Incoming: Output measured Solubility at 24 h for this item: NS(=O)(=O)c1cncc(-c2nc(NCc3ccccn3)c3c(-c4ccccc4)cccc3n2)c1 [Compound 1, reference compound]
Outgoing: < 1 µg/mL

###

# testSummary: Solubility at different pH conditions (equilibrium, 24 h, HPLC)
# Format: physicochemical
# recordedConditions: buffer, pH 7.4, aqueous buffer, thermodynamic from solid, pH 7.4, room temperature; read-out: Solubility at 24 h
valueKind: Solubility at 24 h

molecule: O=P(O)(O)N(P(=O)(O)O)S(=O)(=O)c1cncc(-c2nc(NCc3ccccn3)c3c(-c4ccccc4)cccc3n2)c1 [Compound 10]
result: > 1990 µg/mL

Incoming: Output measured Solubility at 24 h for this item: NS(=O)(=O)c1cncc(-c2nc(NCc3ccccn3)c3c(-c4ccccc4)cccc3n2)c1 [Compound 1, reference compound]
Outgoing: < 1 µg/mL

###

# testSummary: Solubility at different pH conditions (equilibrium, 24 h, HPLC)
# Format: physicochemical
# recordedConditions: pH 6.5, room temperature
valueKind: Solubility at 24 h

compound: O=P(O)(O)NS(=O)(=O)c1cncc(-c2nc(NCc3ccccn3)c3c(-c4ccccc4)cccc3n2)c1 [Compound 5]
result: 2.023 mg/mL
//
compound: O=P(O)(O)NS(=O)(=O)c1cncc(-c2nc(NCc3ccccn3)c3c(-c4ccccc4)cccc3n2)c1 [Compound 3]
result: 4.62 mg/mL
//
compound: O=P(O)(O)NS(=O)(=O)c1cncc(-c2nc(NCc3ccccn3)c3c(-c4ccccc4)cccc3n2)c1 [Compound 6]
result: 0.3 mg/mL
//
compound: O=P(O)(O)NS(=O)(=O)c1cncc(-c2nc(NCc3ccccn3)c3c(-c4ccccc4)cccc3n2)c1 [Compound 7]
result: 1.15 mg/mL
//
compound: O=P(O)(O)NS(=O)(=O)c1cncc(-c2nc(NCc3ccccn3)c3c(-c4ccccc4)cccc3n2)c1 [Compound 8]
result: 0.16 mg/mL

Next item in the queue.
Incoming: Output measured Solubility at 24 h for this item: O=P(O)(O)NS(=O)(=O)c1cncc(-c2nc(NCc3ccccn3)c3c(-c4ccccc4)cccc3n2)c1 [Compound 2]
Outgoing: 0.11 mg/mL
